- Test system: KM12 colon
- assay.summary: NCI-60 one-dose screen, 48 h
- conditions.used: 10 µM
The panel holds about 83,000 compounds, 20% with a hit somewhere; the sample as a whole holds those more often. Active and inactive are the calls of the source. Rule for the calls: active = growth percent below 10; inactive = the rest.
# output must be one of true = active, false = inactive

Before answering, review these 3 worked examples.
compound	class.name
CC(=O)C1=C(C)NC(SCC(=O)Nc2ccc(S(=O)(=O)Nc3cc(C)on3)cc2)=NC1c1ccccc1 (stereo not drawn)	false
O=C(CSc1nnc(-c2ccc3nc(-c4ccccc4)[nH]c3c2)o1)Nc1ccc(Cl)cc1	false
COc1cc(C2CC(c3ccccc3)=Nc3c(N)nc(N)nc3N2)ccc1Oc1nc(Nc2ccc(F)cc2)nc(N(C)C)n1 (stereo not drawn)	false

q: Fill in: this test's call for COc1ccc(-c2nc(-c3ccccc3)c(-c3ccccc3)n2-c2ccc(S(=O)(=O)Nc3ncccn3)cc2)cc1OC is ___
a: false

q: Then CC1=C2C(=C[C@@](C)(COCOCCCl)[C@@H]2O)C(=O)[C@](C)(O)C12CC2 ?
a: true

###

Overview of recorded growth for various compounds
- Tested on: M14 melanoma
- assay.summary: NCI-60 one-dose screen, 48 h (100 = growth as untreated, 0 = no growth, -100 = all killed)
- conditions.used: 10 µM
The panel holds about 83,000 compounds, 20% with a hit somewhere; the sample as a whole holds those more often.
Report the figure in % without appending any unit label.

compound	measured.value
COC[C@@H](CC(C)C)N=C1NC(=O)/C(=C/c2ccc3ncsc3c2)N1	42.3
NS(=O)(=O)c1ccc(NC(=O)CSc2ccc(-c3ccccc3)nn2)c(Br)c1	99.1
CCCCSc1nc(Nc2ccc(/C(C)=N/NC(N)=S)cc2)c(C#N)c(-c2ccc(OC)cc2)n1	39.3
CO[C@@H]1CSSC1Cn1nc(-c2ccc(Oc3ccccc3)cc2)c2c(N)ncnc21 (some centres undefined)	-90.6
O=C(COc1ccc(NC(=O)Nc2ccc(Cl)cc2)cc1)N=Nc1c(O)[nH]c2ccc([N+](=O)[O-])cc12	21.2
C#Cc1ccc(S(=O)(=O)Nc2cccc(-c3csc(NC(C)=O)n3)c2)cc1	92.4

q: Which growth value belongs to O=C(c1ccc(-n2c(=O)[nH]c3ccccc3c2=O)cc1)N1CCOCC1 ?
a: 99.3

q: Then N#Cc1c(-c2ccc(F)cc2)nc(SCc2ccc(F)cc2)nc1N1CCOCC1 ?
a: 92.2

q: Then CN1CCN(Cc2ccc(NC(=O)c3cncc(C#Cc4cnc5ccc(N[C@H]6CCOC6)nn45)c3)cc2C(F)(F)F)CC1 ?
a: -82

###

- System: UACC-257 melanoma
- assay.summary: NCI-60 one-dose screen, 48 h (100 = growth as untreated, 0 = no growth, -100 = all killed)
- conditions.used: 10 µM
Compounds without any hit were thinned out: in the full panel of roughly 83,000, 20% have a hit.
Mark criterion met only for growth values smaller than 50%; exact matches and larger values are criterion not met.

molecule	class.name
COC(=O)c1c(C(=O)OC)c2n(c1C)[C@@H]([C@@H](C)[C@H]1CC[C@H]3[C@@H]4CCC5=CC(=O)CC[C@]5(C)[C@H]4CC[C@]13C)SC2	criterion met
Cc1cc(C)nc(SCC(=O)Nc2ccc(S(N)(=O)=O)cc2)n1	criterion not met
O=C1Nc2ccc(F)cc2/C1=C/c1cccc(OCc2ccccn2)c1	criterion met
Nc1nc(-c2ccccc2)cs1	criterion not met
COc1ccc(-c2nc(S(=O)(=O)c3ccccc3)c(S(C)(=O)=O)o2)cc1	criterion met

q: Lab note: growth threshold 50%. Does this molecule come in strictly under it? COc1csc(/C=N/NC(=O)c2[nH]c3ccc(Br)cc3c2-c2ccccc2)c1
a: criterion met

q: Then CN1C(=O)N(C)C2SC(N/N=C/c3ccccc3)=NC21 (stereo not given) ?
a: criterion not met

q: Then CC(C)(C)c1ccc(NCc2cn(-c3ccc(C(=O)O)cc3)nc2-c2ccc(C#N)cc2)cc1 ?
a: criterion met

q: Then COc1ccc(-c2cc(-c3cc(C(=O)c4ccc(Br)cc4)n4ccc(C)cc34)nc(N)c2C#N)cc1 ?
a: criterion not met

q: Then CC(C)Sc1nc(NC2CC2)c(C#N)c(-c2ccccc2)n1 ?
a: criterion not met
